Quick list: EC50 per entry.
- System: NQO1 activation in BEAS-2B cells
- ASSAY: BEAS-2B cellular MTT assay of NQO1 activation, 0% HSA
- Format: cell-based
- CONDITION_PARAMETERS: Homo sapiens, serum free, read-out: BEAS EC50 (nM) serum free
QUANTITY: EC50 (nM)

{"COMPOUND": "Cc1cc2ccc1C(=O)N1CCc3ccc(cc3C1)C(CC(=O)O)c1ccc3c(c1)nnn3CCCCCO2 (centres unmarked) [Compound 330]", "UNIT_ANNOTATION": "nM", "MEAS_VALUE": 1070}
{"COMPOUND": "Cc1c2ccc3c1nnn3CCCCCCc1ccc(cc1)C(=O)N1CCc3ccc(cc3C1)[C@@H]2[C@H](C)C(=O)O [Compound 175]", "UNIT_ANNOTATION": "nM", "MEAS_VALUE": 53.3}
{"COMPOUND": "Cc1c2ccc3c1nnn3CCCCCCOc1ccc(nc1)C(=O)N1CCc3ccc(cc3C1)C2CC(=O)O (centres unmarked) [Compound 227]", "UNIT_ANNOTATION": "nM", "MEAS_VALUE": 517}
{"COMPOUND": "Cc1c2ccc3c1nnn3CCCCCCOc1ccc(c(F)c1)C(=O)N1CCc3ccc(cc3C1)[C@H]2[C@H](C)C(=O)O [Compound 156]", "UNIT_ANNOTATION": "nM", "MEAS_VALUE": 55.9}
{"COMPOUND": "Cc1c2cnc3c1nnn3CCCCCc1cc(F)c(c(F)c1)C(=O)N1CCc3ccc(cc3C1)[C@H]2CC(=O)O [Compound 139]", "UNIT_ANNOTATION": "nM", "MEAS_VALUE": 0.2}
{"COMPOUND": "Cc1c2ccc3c1nnn3CCCCCCOc1cnc(c(F)c1)C(=O)N1CCc3ccc(cc3C1)C2CC(=O)O (centres unmarked) [Compound 217]", "UNIT_ANNOTATION": "nM", "MEAS_VALUE": 371}
{"COMPOUND": "Cc1c2ccc3c1nnn3CCCCCc1cc(F)c(c(F)c1)C(=O)N1CCc3ccc(cc3C1)C2CC(=O)O (centres unmarked) [Compound 263]", "UNIT_ANNOTATION": "nM", "MEAS_VALUE": 18.3}
{"COMPOUND": "O=C(O)CC1c2ccc3c(c2)CN(CC3)C(=O)c2ncc(cc2F)CCCCCCn2nnc3c(Cl)c1ccc32 (centres unmarked) [Compound 224]", "UNIT_ANNOTATION": "nM", "MEAS_VALUE": 400}
{"COMPOUND": "Cc1c2ccc3c1nnn3CCCCCc1ccc(nc1)C(=O)N1CCc3ccc(cc3C1)C2CC(=O)O (centres unmarked) [Compound 228]", "UNIT_ANNOTATION": "nM", "MEAS_VALUE": 524}
{"COMPOUND": "Cc1c2ccc3c1nnn3CCCCCOc1ccc(cc1)C(=O)N1CCc3ccc(cc3C1)C2CC(=O)O (centres unmarked) [Compound 331]", "UNIT_ANNOTATION": "nM", "MEAS_VALUE": 47.4}
{"COMPOUND": "Cc1c2ccc3c1nnn3CCCCCCc1ccc(cc1)C(=O)N1CCc3ccc(cc3C1)[C@@H]2[C@H](C)C(=O)O (racemic) [Compound 200]", "UNIT_ANNOTATION": "nM", "MEAS_VALUE": 3.4}
{"COMPOUND": "Cc1c2ccc3c1nnn3CCCCCCOc1ccc(cc1)C(=O)N1CCc3ccc(cc3C1)[C@@H]2[C@@H](C)C(=O)O [Compound 107]", "UNIT_ANNOTATION": "nM", "MEAS_VALUE": 0.6}
{"COMPOUND": "Cc1cc2ccc1C(=O)N1CCc3ccc(cc3C1)[C@@H](CC(=O)O)c1ccc3c(nnn3CCC/C=C/C2)c1C [Compound 392]", "UNIT_ANNOTATION": "nM", "MEAS_VALUE": 10.6}
{"COMPOUND": "O=C(O)CC1c2ccc(nc2)OCCCCOc2cc(F)c(c(F)c2)C(=O)N2CCc3ccc1cc3C2 (centres unmarked) [Compound 210]", "UNIT_ANNOTATION": "nM", "MEAS_VALUE": 482}
